- assay explanation: inhibition of RSV-induced cytopathic effect – HEp-2 cells, primary 10 µM value included (AID 2391)
- condition info: at 10 µM, stronger effect = higher value
Out of some 310,000 compounds screened, about 410 (0.13%) were called active. Not shown: some 2% with an inconclusive outcome. Not all results are given here. Results with a measured potency or affinity are listed apart.

# compound, CPE inhibition, %
measured = [
    ("Cc1ccc(N2CC(O)Cn3c2nc2c3c(=O)n(C)c(=O)n2C)cc1 (configuration not stated)", 0.84),
    ("COCCNC(=O)COC(=O)c1cc(-c2ccc(OC)cc2)nc2ccccc12", 2.44),
    ("Cc1cc(C)c2c(c1)[C@@H]1C=CC[C@@H]1[C@H](c1ccc(S(=O)(=O)N3CCOCC3)cc1)N2", 0.17),
    ("Cc1ccc(S(=O)(=O)Nc2ccncc2)c(C)c1N(C)S(=O)(=O)c1ccc(Cl)cc1", 3.66),
    ("CC(C)(C)c1n[nH]c2c1CCCC2", 3.59),
    ("CC(C(=O)N1CCc2ccccc21)n1cccc1 (configuration not stated)", 1.93),
    ("O=C(NC1=NCCS1)c1cc(-c2cccnc2)nc2ccccc12", 3.02),
    ("CCC(=O)NCCc1nc2cc(NC(=O)Nc3ccccc3)ccc2n1C", 1.28),
    ("Cc1ccc(C)c(S(=O)(=O)N/N=C/c2ccc(N(C)C)cc2)c1", -0.72),
    ("Cn1cccc1Cc1nnc(SCC(=O)Nc2ccc3c(c2)OCCO3)n1-c1ccc(F)cc1", 0.23),
    ("CCCNC(=O)c1cc(S(=O)(=O)N2CCCCC2)ccc1N1CCOCC1", -0.63),
    ("COc1cccc2c1c(NC(=O)Nc1ccc(F)cc1F)nn2C", 1.98),
    ("COc1ccc(C(=O)NCC(=O)N/N=C/c2c(C)[nH]c3ccccc23)cc1", 6.54),
    ("COc1cc(C)c(C(C)C)cc1S(=O)(=O)n1cnc(C)c1", 11.6),
    ("O=C(Nc1cccc(C(=O)Nc2cccc(C(F)(F)F)c2)c1)c1ccc(=O)[nH]c1", 0.31),
    ("COc1cccc(-c2cc(C(=O)Nc3ccncc3)c3ccccc3n2)c1", 18.1),
    ("Cc1cc[n+](C(C)C(=O)c2ccc(Cl)cc2)cc1 (configuration not stated)", 0.43),
    ("COc1ccc(NC(=O)c2sc3nc(-c4cccnc4)ccc3c2N)cc1OC", 1.58),
    ("CCC1CCCCN1C(=O)c1ccc2nc(Cc3ccc(OC)cc3)oc2c1 (configuration not stated)", 20.7),
    ("COc1ccc(S(=O)(=O)N2CCCCC2)cc1NC(=O)C1CC1", -0.43),
    ("COc1cc(C(=O)NCC(=O)N/N=C/c2c(C)[nH]c3ccccc23)cc(OC)c1OC", 3.1),
    ("CC(=O)Nc1ccc(NC(=O)CSc2ccc(-c3ccc4c(c3)OCO4)nn2)cc1", 3.37),
]

###

Recorded CPE inhibition values for a group of compounds are listed next.
- assay explanation: inhibition of RSV-induced cytopathic effect – HEp-2 cells, primary 10 µM value included (AID 2391)
- condition info: at 10 µM, stronger effect = higher value
The campaign covered roughly 310,000 compounds. About 410 (0.13%) were called active. Inconclusive results (about 2%) are left out. These entries were drawn from the full list. Entries with a potency or affinity are not part of this list.

# compound, reading unit, CPE inhibition
data = [
    ("COc1ccccc1OCCn1ccnc1", "%", 0.82),
    ("COc1ccccc1-c1oc2ccccc2c1C#CCCO", "%", 3.39),
    ("CN(C)c1ccc(CN(CC2CCCO2)C(=O)c2cccs2)cc1 (centres undefined)", "%", -0.5),
    ("COC(CNS(=O)(=O)c1cccc2nonc12)OC", "%", 3.28),
    ("Cc1nn(-c2ccccc2)c(C)c1/C=N/O", "%", 5.01),
    ("O=C(CSc1nnc2ccccn12)NC(=O)NC1CCCC1", "%", 0.11),
    ("CC(C)Cc1nnc(NC(=O)CCC(=O)Nc2ccccc2F)s1", "%", 1.44),
    ("CCOC(=O)/C(C#N)=C/c1c(N2CCN(c3ccc(OC)cc3)CC2)nc2c(C)cccn2c1=O", "%", 7.79),
    ("COc1ccc(/C=N/NC(=O)Cc2ccc(Cl)cc2)cc1OC", "%", 1.07),
    ("COc1ccc(OC)c(NC(=O)c2cccc(S(=O)(=O)N(Cc3ccccc3)c3ccccc3OC)c2)c1", "%", 2.42),
    ("COc1ccc2[nH]c(C)c(C(=O)CN3CCN(C/C=C/c4ccccc4)CC3)c2c1", "%", 4.44),
    ("CCOC(=O)NC(Nc1ccc(C)cn1)(C(F)(F)F)C(F)(F)F", "%", 0.51),
    ("Cc1ccc(C(=O)NCC2CCCN2S(=O)(=O)c2cccs2)cc1C (centres undefined)", "%", 1.81),
    ("O=c1c2ccccc2ncn1Cc1ccc(Cl)c(Cl)c1", "%", 3.3),
    ("CCNC(=O)CC1C(=O)N(c2ccc(F)cc2)C(=S)N1CCc1ccncc1 (centres undefined)", "%", -1.58),
    ("CCOC(=O)c1c(C)c(C(=O)Nc2ccc3c(c2)OCCO3)c(C)n1C", "%", -0.46),
    ("COc1ccc(CCNC(C)=O)cc1", "%", 3.67),
    ("O=C(NC(Cc1c[nH]c2ccccc12)C(=O)N/N=C/c1ccc(Br)cc1)c1cccs1 (centres undefined)", "%", -2.58),
    ("Cc1cccc(-c2oc3ccccc3c2C#CCCCCO)c1", "%", 3.25),
    ("O=C(NC(Cc1c[nH]c2ccccc12)C(=O)N1CCOCC1)c1cccs1 (centres undefined)", "%", -0.02),
    ("Cc1c(C(=O)OCC(=O)Nc2c(C)n(C)n(-c3ccccc3)c2=O)oc2ccccc12", "%", 0.38),
    ("COc1ccccc1N=Nc1nc(-c2ccccc2)c(-c2ccccc2)[nH]1", "%", 12.4),
    ("Cc1cc(Nc2ccc(Cl)cc2)nc(-c2ccccc2O)n1", "%", 14.1),
    ("O=C(NC(Cc1c[nH]c2ccccc12)C(=O)O)c1cccs1 (centres undefined)", "%", -1.85),
]
